Hey, just so you know, these numbers are from PubChem BioAssay.

- Test system: Sam68 (KHDRBS1)
- experimentalProtocol: Sam68 small-molecule binders, primary screen, biochemical, small-molecule microarray, 635 nm fluorescence (AID 1125);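 further: score merges 667 nm channel intensity with signal to noise over triplicate slides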
- experimentalParameters: small-molecule microarray binding, higher = more signal
readoutType: composite z-score

compound: O=C(O)[C@@]1(Cc2ccccc2)N=C(c2ccc(OCCCO)cc2)O[C@H]1c1ccccc1
testTarget: Sam68 (KHDRBS1)
resultNumber: 0.499

compound: O=C1O[C@H](c2ccccc2)[C@H](c2ccccc2)N2[C@H]1[C@@H](C(=O)O)[C@]1(C(=O)Nc3ccc(C#CC4(O)CCCCCC4)cc31)[C@H]2c1ccc(OCCO)cc1
testTarget: Sam68 (KHDRBS1)
resultNumber: 1.29

compound: CCCCCCCCCCC(O)C1C=CC2C(=O)N(Cc3ccccc3)C(=O)C2N1n1cnnc1 (centres undefined)
testTarget: Sam68 (KHDRBS1)
resultNumber: 1.11

compound: CCOc1cc(C(O)C2C=CC3C(=O)N(c4ccccc4)C(=O)C3N2Nc2ccc([N+](=O)[O-])cc2)ccc1O (centres undefined)
testTarget: Sam68 (KHDRBS1)
resultNumber: 0.874
